test system: 475296-252-R-J1-PDC spheroid viability; experiment: Anticancer human tumor 475296-252-R-J1-PDC patient-derived rectal carcinoma cell line growth inhibition [PI3K]; conditions: second compound 1 µM; first compound 3.16 µM; hits give low values; spheroids with HUVEC and MSC;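 further: spheroids exposed to agents for seven days before readout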
// bucketize viability, T/C: bottom: < 60%; middle: ≥ 60% and < 80%; top: ≥ 80%

Examples with answers:
C#Cc1c(F)ccc2cc(O)cc(-c3ncc4c(N5CC6CCC(C5)N6)nc(OCC56CCCN5CC(F)C6)nc4c3F)c12 (stereo not given) + COc1c(OCCCN2CCOCC2)ccc2c3n(c(=NC(=O)c4cnc(N)nc4)nc12)CCN3 : bottom
CC1(C)CCC(CN2CCN(c3ccc(C(=O)NS(=O)(=O)c4ccc(NCC5CCOCC5)c([N+](=O)[O-])c4)c(Oc4cnc5[nH]ccc5c4)c3)CC2)=C(c2ccc(Cl)cc2)C1 + CC(Nc1ccc2c(c1)OCCn1cc(N3C(=O)OCC3C(F)F)nc1-2)C(N)=O : top
CC1(C)CCC(Nc2ncc(C(F)(F)F)c(-c3c[nH]c4c(P(C)(C)=O)c(C#N)ccc34)n2)CN1 (stereo not given) + COc1c(OCCCN2CCOCC2)ccc2c3n(c(=NC(=O)c4cnc(N)nc4)nc12)CCN3 : bottom
CNC(=O)c1ccc(N2C(=S)N(c3ccc(C#N)c(C(F)(F)F)c3)C(=O)C2(C)C)cc1F + CC(Nc1ncnc2nc[nH]c12)c1cc2cccc(Cl)c2c(=O)n1-c1ccccc1 : top
CC1(C)CCC(CN2CCN(c3ccc(C(=O)NS(=O)(=O)c4ccc(NCC5CCOCC5)c([N+](=O)[O-])c4)c(Oc4cnc5[nH]ccc5c4)c3)CC2)=C(c2ccc(Cl)cc2)C1 + Cc1nc(NC(=O)N2CCCC2C(N)=O)sc1-c1ccnc(C(C)(C)C(F)(F)F)c1 : top
C#Cc1c(F)ccc2cc(O)cc(-c3ncc4c(N5CC6CCC(C5)N6)nc(OCC56CCCN5CC(F)C6)nc4c3F)c12 (stereo not given) + CC(Nc1ccc2c(c1)OCCn1cc(N3C(=O)OCC3C(F)F)nc1-2)C(N)=O : bottom
CNC(=O)c1ccc(N2C(=S)N(c3ccc(C#N)c(C(F)(F)F)c3)C(=O)C2(C)C)cc1F + COc1c(OCCCN2CCOCC2)ccc2c3n(c(=NC(=O)c4cnc(N)nc4)nc12)CCN3 : middle
C[C@@H](NC(=O)c1ncnc(N)c1Cl)c1ncc(C(=O)Nc2cc(C(F)(F)F)c(Cl)cn2)s1 + Cc1nc(NC(=O)N2CCCC2C(N)=O)sc1-c1ccnc(C(C)(C)C(F)(F)F)c1 : top
CC(C)NCC(C(=O)N1CCN(c2ncnc3c2C(C)CC3O)CC1)c1ccc(Cl)cc1 (stereo not given) + CC(Nc1ccc2c(c1)OCCn1cc(N3C(=O)OCC3C(F)F)nc1-2)C(N)=O : middle

Kindly review the next compound as well.
Q: Each compound maps to one class by viability, T/C. Which class for C=CC(=O)N1CCN(c2nc(=O)n(-c3c(C)ccnc3C(C)C)c3nc(-c4c(O)cccc4F)c(F)cc23)C(C)C1 (stereo not given) + Cc1nc(NC(=O)N2CCCC2C(N)=O)sc1-c1ccnc(C(C)(C)C(F)(F)F)c1 ?
Result: top

Origin of the recorded values: PubChem BioAssay AID1963980
